Recorded values, source paper PMC4701174.

target: T. brucei guanosine 5'-monophosphate reductase (TbGMPR) (Trypanosoma brucei, UniProt Q57ZS7); construct: recombinant TbGMPR coding region, GST fusion in E. coli, tag cleaved with PreScission protease; assay: NADPH consumption at […] nm, Lineweaver-Burk, competitive inhibition fit (IC50 […])
Sequence (Q57ZS7 entry or part of it): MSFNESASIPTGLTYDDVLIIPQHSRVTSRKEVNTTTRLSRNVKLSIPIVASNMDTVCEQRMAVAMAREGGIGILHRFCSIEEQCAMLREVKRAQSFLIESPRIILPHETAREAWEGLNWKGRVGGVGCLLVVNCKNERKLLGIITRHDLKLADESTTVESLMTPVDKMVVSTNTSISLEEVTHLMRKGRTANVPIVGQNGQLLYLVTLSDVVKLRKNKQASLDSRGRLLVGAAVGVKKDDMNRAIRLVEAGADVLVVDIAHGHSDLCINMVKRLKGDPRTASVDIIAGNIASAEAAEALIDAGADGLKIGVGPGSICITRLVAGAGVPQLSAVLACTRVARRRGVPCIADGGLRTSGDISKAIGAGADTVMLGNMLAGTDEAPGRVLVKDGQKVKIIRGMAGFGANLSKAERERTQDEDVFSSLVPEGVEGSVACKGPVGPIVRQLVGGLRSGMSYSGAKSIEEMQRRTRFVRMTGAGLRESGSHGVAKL
endpoint: pKi
Answer as the number alone; pKi is minus log10 of concentration in mol/L.

Sample NC(=O)c1ncn([C@@H]2O[C@H](COP(=O)(O)O)[C@@H](O)[C@H]2O)n1 [RMP, ribavirin 5'-monophosphate] — what was its pKi?
5.35

* * *

molecular target: HsGMPR1 (human GMPR type 1) (Homo sapiens, UniProt P36959); construct: recombinant; assay: NADPH consumption at […] nm, Hill fit
Sequence (P36959 whole entry): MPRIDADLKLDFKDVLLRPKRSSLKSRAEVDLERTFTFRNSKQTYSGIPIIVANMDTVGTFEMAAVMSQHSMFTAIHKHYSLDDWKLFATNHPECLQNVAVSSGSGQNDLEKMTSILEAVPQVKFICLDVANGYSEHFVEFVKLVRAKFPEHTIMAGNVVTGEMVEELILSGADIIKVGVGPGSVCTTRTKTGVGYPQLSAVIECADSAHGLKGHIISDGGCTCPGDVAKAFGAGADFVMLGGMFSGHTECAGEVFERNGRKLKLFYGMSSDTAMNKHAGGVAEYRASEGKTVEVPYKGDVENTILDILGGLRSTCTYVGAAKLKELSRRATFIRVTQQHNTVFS
endpoint: pIC50
Answer as the number alone; pIC50 is minus log10 of concentration in mol/L.

Hello, I am looking for reported pIC50 with HsGMPR1 (human GMPR type 1) (Homo sapiens, UniProt P36959) for NC(=O)c1ncn([C@@H]2O[C@H](COP(=O)(O)O)[C@@H](O)[C@H]2O)c1O [MZP, mizoribine 5’-monophosphate] . Could you help?
3.92

* * *

biological target: T. brucei guanosine 5'-monophosphate reductase (TbGMPR) (Trypanosoma brucei); construct: recombinant TbGMPR coding region, GST fusion in E. coli, tag cleaved with PreScission protease; assay: NADPH consumption at […] nm, Hill fit
endpoint: IC50 (µM)
Number in µM, nothing else.

Hello, I am looking for reported IC50 with T. brucei guanosine 5'-monophosphate reductase (TbGMPR) (Trypanosoma brucei) for NC(=O)c1ncn([C@@H]2O[C@H](COP(=O)(O)O)[C@@H](O)[C@H]2O)c1O [MZP, mizoribine 5’-monophosphate] . Could you help?
23.7
